pIC50 values for the molecules below.
Target protein (sequence): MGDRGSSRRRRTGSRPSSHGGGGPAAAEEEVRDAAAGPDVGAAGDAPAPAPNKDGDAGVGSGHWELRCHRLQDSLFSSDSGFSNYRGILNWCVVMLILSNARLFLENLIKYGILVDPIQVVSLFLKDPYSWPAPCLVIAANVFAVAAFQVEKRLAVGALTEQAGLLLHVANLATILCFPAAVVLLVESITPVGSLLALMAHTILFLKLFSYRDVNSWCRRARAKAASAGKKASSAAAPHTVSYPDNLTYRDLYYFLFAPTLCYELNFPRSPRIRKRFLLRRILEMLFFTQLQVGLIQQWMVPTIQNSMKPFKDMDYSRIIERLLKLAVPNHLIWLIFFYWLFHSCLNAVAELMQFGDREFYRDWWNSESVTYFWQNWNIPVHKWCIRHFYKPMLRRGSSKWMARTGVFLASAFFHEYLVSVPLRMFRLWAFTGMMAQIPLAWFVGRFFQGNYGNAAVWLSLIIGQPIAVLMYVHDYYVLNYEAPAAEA
pIC50: −log10 of the molar value.
measurement_kind: pIC50

> print(dat)
                                   molecule  value.observed
1  Cc1ccc(NC(=O)N2CCN(c3ccc(NC(=O)CCCc4ccccc4)cc3)CC2)c(C)c1            7.57
2  CC(C)C(NC(=O)OC(C)(C)C)C(=O)Nc1ccc(C2CCN(C(=O)Nc3c(Cl)cccc3Cl)CC2)cc1 (stereo not drawn)            6.72
3  O=C(CCN(Cc1ccccc1Cl)S(=O)(=O)c1ccccc1[N+](=O)[O-])Nc1ccc(N2CCN(C(=O)Nc3c(Cl)cccc3Cl)CC2)cc1            7.33
